ASSAY OVERVIEW: Metabolic stability in dog liver microsomes assessed as intrinsic clearance at 1 uM incubated up to 60 mins in presence of NADPH by LC-MS/MS analysis
Type: ADME, Canis lupus familiaris, Microsome
DETAILS: read-out: CLH
ENDPOINT NAME: microsomal CLint at 1 µM (µL/min/mg)
Note: unit µL/min/mg is implicit; provide only the numeric part.

Look over these answered cases.
1) Cc1ncc2n1-c1ccc(Cl)cc1C(c1ccccc1F)=NC2 [MIDAZOLAM]    1500
2) COc1cc(F)ccc1-c1nc(Nc2ccc3c(N4CCOCC4)c(C(C)=O)c(=O)oc3c2)ncc1F    98.7

Let us examine a further case.
Query: Any idea what microsomal CLint at 1 µM was measured for COc1cc(F)ccc1-c1ccnc(Nc2ccc3c(N4CCOCC4)c(C(C)=O)c(=O)oc3c2)n1 ?
Response: 98.3
